- Test system: hLiMTs
- run_conditions: human
readout_name: hLiMTs Cmax max All

INSERT INTO measurements (compound, measured_on, value) VALUES
  ('O=P1(N(CCCl)CCCl)NCCCO1 (stereo not shown) [cyclophosphamide, reference compound]', 'hLiMTs', '+ve'),
  ('Nc1c2c(nc3ccccc13)CCCC2 [tacrine, reference compound]', 'hLiMTs', '-ve'),
  ('CO[C@@]12[C@H](COC(N)=O)C3=C(C(=O)C(C)=C(N)C3=O)N1C[C@@H]1N[C@@H]12 [mitomycin C]', 'hLiMTs', '+ve'),
  ('CC(C)[N+](C)(CCOC(=O)C1c2ccccc2Oc2ccccc21)C(C)C [propantheline]', 'hLiMTs', '-ve');

----------
- Tested on: hLiMTs
- protocol_details: Combined HCI (HCS) and cellular ATP 3D assay in hLiMTs
- run_conditions: Microtissue model structural based (HCI); combined HCS and ATP, MEC < 25 × Cmax.tot cut-off
readout_name: DILI prediction hLiMTs (HCS-MEC)

INSERT INTO results (compound, readout_name, value) VALUES
  ('C[N+](C)(C)CC(=O)O [betaine, reference compound]', 'DILI prediction hLiMTs (HCS-MEC)', '-VE'),
  ('CCOC(=O)CN[C@@H](C(=O)N1CC[C@H]1C(=O)NCc1ccc(/C(N)=N\O)cc1)C1CCCCC1', 'DILI prediction hLiMTs (HCS-MEC)', '-VE');

----------
- Test system: HepaRG spheroids
- protocol_details: Combined HCI (HCS) and cellular ATP 3D assay in HepaRG spheroids
- run_conditions: HepaRG; ATP endpoint; cut-off <100x Avg Cmaxu
readout_name: HepaRG <100x Avg Cmaxu ATP

INSERT INTO results (compound, measured_on, value) VALUES
  ('CCN(CC)CC#CCOC(=O)C(O)(c1ccccc1)C1CCCCC1 (stereo not drawn) [oxybutynin]', 'HepaRG spheroids', '-ve'),
  ('CN1CCN(C2=Nc3cc(Cl)ccc3Nc3ccccc32)CC1 [clozapine]', 'HepaRG spheroids', '-ve');

----------
- protocol_details: Plasma free fraction (fu) and unbound Cmax (Cmax,u)
- Format: in vitro ADME, human
- run_conditions: unbound plasma Cmax
Decide using Human plasma Cmax,u alone. Strictly below 100 nM: YES. Equal to or above 100 nM: NO.

INSERT INTO results (compound, discrete_label) VALUES
  ('CCc1ccc(CCOc2ccc(CC3SC(=O)NC3=O)cc2)nc1 (stereo not drawn) [pioglitazone, reference compound]', 'YES'),
  ('CCN(CC)CCNC(=O)c1c(C)[nH]c(/C=C2\C(=O)Nc3ccc(F)cc32)c1C', 'YES'),
  ('CN(C)CCCN1c2ccccc2Sc2ccc(Cl)cc21 [chlorpromazine, reference compound]', 'YES'),
  ('Cc1cc2c(cc1CC(=O)c1sccc1S(=O)(=O)Nc1onc(C)c1Cl)OCO2', 'NO'),
  ('CCc1nn(CCCN2CCN(c3cccc(Cl)c3)CC2)c(=O)n1CCOc1ccccc1 [nefazodone, reference compound]', 'YES'),
  ('N[C@@H]1[C@H]2CN(c3nc4c(cc3F)c(=O)c(C(=O)O)cn4-c3ccc(F)cc3F)C[C@@H]12', 'NO'),
  ('N[C@@H](Cc1cc(I)c(Oc2ccc(O)c(I)c2)c(I)c1)C(=O)O', 'YES'),
  ('CC(C)(C)NCC(O)COc1cccc2c1CC(O)C(O)C2 (stereo not drawn)', 'NO'),
  ('NNC(=O)c1ccncc1 [isoniazid, reference compound]', 'NO'),
  ('Cc1ccc(C(=O)c2cc(O)c(O)c([N+](=O)[O-])c2)cc1 [tolcapone, reference compound]', 'YES'),
  ('CC(C)C(=O)Nc1ccc([N+](=O)[O-])c(C(F)(F)F)c1 [flutamide, reference compound]', 'NO'),
  ('CN1CCN(C2=Nc3cc(Cl)ccc3Nc3ccccc32)CC1', 'YES'),
  ('C#CCN(C)Cc1ccccc1', 'NO'),
  ('NC(=O)N1c2ccccc2C=Cc2ccccc21 [carbamazepine, reference compound]', 'NO'),
  ('CCCC(CCC)C(=O)O', 'NO'),
  ('CC(COc1ccccc1)N(CCCl)Cc1ccccc1 (stereo not drawn)', 'YES'),
  ('CC/C(=C(\c1ccccc1)c1ccc(OCCN(C)C)cc1)c1ccccc1', 'YES');
